- targetUnderTest: T1, UNK ZnF1-3 (human, UniProt Q9C0B0 31-174)
- T1 sequence: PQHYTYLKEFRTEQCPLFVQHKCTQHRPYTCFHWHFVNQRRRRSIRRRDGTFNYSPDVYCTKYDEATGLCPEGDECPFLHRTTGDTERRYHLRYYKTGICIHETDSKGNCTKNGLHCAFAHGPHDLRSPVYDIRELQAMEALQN
- procedureText: nsRBNS (natural sequence RNA bind-n-seq); RBNS binding buffer (assumed for nsRBNS): 25 mM Tris pH 7.5, 150 mM KCl, 3 mM MgCl2, 0.01% Triton X-100, 500 ug/ml BSA, 20 U/ml SUPERase-In, 4 C; UNK is unkempt and MSI1 is Musashi-1; names of the RNAs are library labels; protein concentration not given here; high values mean tight binding
The full ranking holds about 24,000 sequences; the median of “enrichment r” is about 0.99, and the highest 2% start at about 3.7. The full list was thinned out, with the highest values kept by preference.
// assign fulfilled if binding signal falls strictly below 1 enrichment R, else not fulfilled (ties count as not fulfilled)

[[record]]
binder = "chr8:13020401:13020402:+_ENSMUSG00000031442_ENSMUST00000123811|mus_hu|FALSE|FALSE (ssRNA) RNA: GGGAGUUCUACAGUCCGACGAUCUGAUUCCGCACCCUGGAGGUCUGGCCAGUGACGGCUACAAGCCGCUGGGAGGGUAGCGUGAGGGGAAUGCAGCCACGCCUGCCUCCACUGUGCUGGGGCUGGGAACCGUGAGGCUGUGAGCAACAGAGGAUUGAGCAUCA"
qualitativelabel = "not fulfilled"

[[record]]
binder = "chr10:122431106:122431107:-_ENSMUSG00000034602_ENSMUST00000073792|mus_mus|FALSE|FALSE (ssRNA) RNA: GGGAGUUCUACAGUCCGACGAUCAAUAUUUUCAAAAUGUUGCCACUCUUACUAUUUUGAUACUUUAUCAGUGAUAGUCCUAUUCUUUAAUUCACAAGUGAGUAUAUCAAAAUAUAAAAAAUACACGGCUUGAGUCAUUUUUUUCAACAGAGGAUUGAGCAUCA"
qualitativelabel = "fulfilled"

[[record]]
binder = "chr6:135286264:135286265:-_ENSG00000112339_ENST00000367826|hu_hu|FALSE|FALSE (ssRNA) RNA: GGGAGUUCUACAGUCCGACGAUCUUUGCCAGUUGGCAACUUAGAAUUUUUGCAGAGGUGAUUAUUAAUACUUCUUUGCAGCUAAUUUUAGCUUUAAUUUUUCUCUCUCAUCUAAAAACAUAUCAAUUGCACAUUGUUCCUUUGCAACAGAGGAUUGAGCAUCA"
qualitativelabel = "fulfilled"

[[record]]
binder = "114145877_114145997_1367_3pUTR_ENSMUSG00000033545_ENSMUST00000095176|mouse|control|control (ssRNA) RNA: GGGAGUUCUACAGUCCGACGAUCUUUGCAGUGGACAAUGUCUGUUCCACAGGCCACUACUUAGUGAUUCUUCCCUUUCAGAACCGAGUCUCUGAGAGGUGAGGGAGGUGAGGCUGCUGUAGAGCCUGGCUGGGGGCGCCUCUGCAACAGAGGAUUGAGCAUCA"
qualitativelabel = "fulfilled"

[[record]]
binder = "chr6:29491266:29491267:-_ENSMUSG00000012535_ENSMUST00000012679|mus_mus|FALSE|FALSE (ssRNA) RNA: GGGAGUUCUACAGUCCGACGAUCGGGUUGGGCUCUACAUUAAAAGCAACUUUGACCCUGGCUAGUCCGGACUAUCAUCCCUAACCAUGAUAUAAGCAGACCAGGCUCCUUGUCUGGACAUUUCUAAAGGUGAACAGUUGGGGGCAACAGAGGAUUGAGCAUCA"
qualitativelabel = "fulfilled"

[[record]]
binder = "chr3:102833055:102833056:+_ENSMUSG00000068823_ENSMUST00000029446|mus_mus|FALSE|FALSE (ssRNA) RNA: GGGAGUUCUACAGUCCGACGAUCUCAGUAGUAUUUGCUGACUCUUCUUUUUUCAGCACAAGUUCCAAAGGAUGAAAGUUGCUAGUAUUUAAAAAAAGAAAAAAAAAAGAAAAAGAAAAAAAGAAAAAAAAAAGGAGAGCGAGACAACAGAGGAUUGAGCAUCA"
qualitativelabel = "not fulfilled"

[[record]]
binder = "chr8:93522421:93522422:+_ENSMUSG00000056608_ENSMUST00000048665|mus_hu|FALSE|FALSE (ssRNA) RNA: GGGAGUUCUACAGUCCGACGAUCAGACUGGAUCAUUGCUUGAAGAUGAAAAUCAGAAGCAGCUGGAUUGUAAGUAUCUCUAAAUUCUCCAAGUAUUUUCUCCUCAGCACCUUUUAUAAGAUAUGGAUGAUUACAACAUUUCCUCAACAGAGGAUUGAGCAUCA"
qualitativelabel = "not fulfilled"

[[record]]
binder = "142051865_142054343_4063_CDS_ENSG00000114127_ENST00000264951|human|control|control (ssRNA) RNA: GGGAGUUCUACAGUCCGACGAUCUGACUGUACUUCAUUUUCUUUGGAGAUAUUCAAAGAUGCUAAAAAGUUCUCAAUUCCAGAGUUAGGCUGCUUAUUGGACAUUUUUUGGGACCAACACUCAGCUUUAGGACUCUUACACUCCAACAGAGGAUUGAGCAUCA"
qualitativelabel = "fulfilled"

[[record]]
binder = "chr15:83907240:83907241:-_ENSMUSG00000018865_ENSMUST00000082365|mus_mus|motif|central (ssRNA) RNA: GGGAGUUCUACAGUCCGACGAUCGCUGUGAAAGAUACUAAUUCUUGGUGCAGUCUGGCAUCUGUGGGGCCUCUUCCACACCGGCCAGUGCCUUCAGAUGCCACCCGCAGCCUCGGGCCAGCUUCCCUGCCGAAACAUUCCUUGCAACAGAGGAUUGAGCAUCA"
qualitativelabel = "fulfilled"

[[record]]
binder = "chr14:73742652:73742653:-_ENSG00000133961_ENST00000557597|hu_hu|motif|central (ssRNA) RNA: GGGAGUUCUACAGUCCGACGAUCCCCCUUUACCUUUGGCAAGAUUACUUACAACUCAUACAACUUCUUAAUAUCUGAGAACGGUUUAAAAUAUUCUAAAUGCAUAAAAAUAAAGAUUUUGGCUUUUGAUAUAUAUAAUAUUUACAACAGAGGAUUGAGCAUCA"
qualitativelabel = "not fulfilled"

[[record]]
binder = "chr19:42259214:42259215:+_ENSMUSG00000018820_ENSMUST00000165783|mus_mus|FALSE|FALSE (ssRNA) RNA: GGGAGUUCUACAGUCCGACGAUCGCUAUAGUGACUGCUGCAGACUCAGAGACACUAGGAAAGUUGCAAGUGUAUAUUUUCUAUCUAAAUUUCUAACUAAAAUUUGCCCUGUUUUAUUCACUGGCCCAAAGGAUUCUUUUUUAACAACAGAGGAUUGAGCAUCA"
qualitativelabel = "not fulfilled"

[[record]]
binder = "chr14:73742652:73742653:-_ENSG00000133961_ENST00000557597|hu_mus|FALSE|FALSE (ssRNA) RNA: GGGAGUUCUACAGUCCGACGAUCCUAACCCGCUCACUUUUGGCAAGAUUACUUACAACUCAUACUUUUUAAUAUUGAGAACUAUUUAAAAUAUUCUAGGUGCAUAAAAAUAAAGAUUUUGGCUUUUUGAUAUAUAUAUAUAUACAACAGAGGAUUGAGCAUCA"
qualitativelabel = "not fulfilled"


From: paper PMC12136788
